B1: HDV Ribozyme (parent)
chain: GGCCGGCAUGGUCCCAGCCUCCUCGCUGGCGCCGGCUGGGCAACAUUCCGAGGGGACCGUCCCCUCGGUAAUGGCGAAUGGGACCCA

Variants of: B1
Experiment: self-cleavage, relative activity (ratio to wild type); higher = more cleavage; co-transcriptional
As shown below, each of these variants has a reported self-cleavage value.
When you answer, write just the number.

Some entries whose results are on file:
1. G17U G25U; 0.185
2. G5C C22U; 0.151
3. G34A G80U; 0.0903
4. C4G A16G; 0.453
5. C4G A42G; 0

Entry under test: U65C G81U . Its self-cleavage was 0.415

Entry under test: C14U C63U . Its self-cleavage was 0.927

Entry under test: U9G U12G . Its self-cleavage was 1.11

Entry under test: G38A A51U . Its self-cleavage was 0.268

Entry under test: G10C C21A . Its self-cleavage was 0.0723

Entry under test: U23A G80A . Its self-cleavage was 0.18

Entry under test: C66U G74C . Its self-cleavage was 0.363

Entry under test: C19A C32G . Its self-cleavage was 0.116

Entry under test: C49A U72C . Its self-cleavage was 0.32

Entry under test: C14G A56C . Its self-cleavage was 0.646

Entry under test: U20A G53C . Its self-cleavage was 0.0773

Entry under test: G59C A70C . Its self-cleavage was 1.07

Entry under test: A16G U23G . Its self-cleavage was 1.16

Entry under test: G67C A78C . Its self-cleavage was 0.0639

Entry under test: C18U C84G . Its self-cleavage was 0.308

Entry under test: A51U G73C . Its self-cleavage was 0.415

Entry under test: C66A G67C . Its self-cleavage was 0.845

Entry under test: G52U C85U . Its self-cleavage was 0.781
